Attribute: melting point

Known results for compounds:
O=C(O)C(=O)c1cccc(OCc2ccccc2Cl)c1OCc1ccccc1Cl :: 116 to 118 °C
O=C(O)c1cccc(OCc2ccccc2Cl)c1OCc1ccc[n+]([O-])c1Cl :: 145 to 148 °C
O=C(Nc1c(OCc2c(Cl)cccc2Cl)cccc1C(=O)O)c1ccccc1 :: 145 to 147 °C

Moving on to another compound below.
Consider the compound `O=C(O)c1cc(Br)cc(OCc2ccccc2Cl)c1OCc1ccccc1Cl` and give its recorded melting point. 186 to 187 °C

* * *

PARAMETER: melting point

Known results for compounds:
O=C(Nc1c(OCc2ccccc2)cccc1C(=O)O)c1cc(Cl)cc(Cl)c1 :: 202 to 204 °C
O=C(O)c1cccc(OCc2ccccc2Cl)c1OCc1cccnc1 :: 181 to 182 °C
O=C(Nc1cccc(C(=O)O)c1OCc1ccccc1Cl)c1ccccc1Cl :: 182 to 183 °C
O=C(Nc1c(OCc2ccccc2)cccc1C(=O)O)c1ccccc1 :: 167 to 168 °C
O=C(O)c1cccc(OCc2ccc(Cl)cc2)c1OCc1ccc(Cl)cc1 :: 174 to 175 °C

Consider the compound CO/N=C(/C(=O)O)c1cccc(OCc2ccccc2Cl)c1OCc1ccccc1Cl (single isomer, unassigned) [Example 340] and give its recorded melting point. 140 to 141 °C

* * *

Attribute: melting point
Counter-ions that a name gives are not always drawn.

Cn1c(COc2c(OCc3ccccc3Cl)cccc2C(=O)O)nc2ccccc21 [Example 372] :: 179 to 182 °C
O=C(O)c1c(Br)ccc(OCc2ccccc2Cl)c1OCc1ccccc1Cl [Example 373] :: 156 to 158 °C
O=C(O)C(F)c1cccc(OCc2ccccc2Cl)c1OCc1ccccc1Cl (stereo not drawn) [Example 24] :: 92 to 94 °C
Cc1ccc(C)c(COc2cccc(C(=O)O)c2OCc2cc(C)ccc2C)c1 [Example 351] :: 114 to 116 °C
O=C(O)c1cccc(OCc2ccc(Cl)cc2Cl)c1OCc1ccc(Cl)cc1Cl [Example 346] :: 168 to 169 °C
O=C(O)c1cccc(OCc2ccc(Cl)cc2Cl)c1OCc1ccccc1 [Example 354] :: 151 to 153 °C

Consider the compound O=C(O)c1cccc(OCc2ccccc2Cl)c1OCc1ccncc1 [Example 364] and give its recorded melting point. 157 to 159 °C

Consider the compound O=C(O)c1cccc(OCc2ccccc2Cl)c1OCc1ccccc1Cl [Example 347] and give its recorded melting point. 156 to 157 °C

Consider the compound O=C(O)c1cccc(OCc2ccccc2Cl)c1OCc1ccccn1 [Example 363] and give its recorded melting point. 168 to 170 °C

Consider the compound O=C(O)C(O)c1cccc(OCc2ccccc2Cl)c1OCc1ccncc1 (stereo not drawn) [Example 344] and give its recorded melting point. 181 to 183 °C

Consider the compound O=C(O)c1cccc(OCc2ccccc2Cl)c1OCc1cc[n+]([O-])cc1 [Example 369] and give its recorded melting point. 186 to 188 °C

Consider the compound Cc1cc(C)cc(COc2cccc(C(=O)O)c2OCc2cc(C)cc(C)c2)c1 [Example 352] and give its recorded melting point. 117 to 118 °C

Consider the compound O=C(O)/C=C/c1cccc(OCc2ccccc2Cl)c1OCc1ccccc1Cl [Example 4] and give its recorded melting point. 187 to 189 °C

Consider the compound O=C(O)c1cc(Br)cc(OCc2ccccc2)c1OCc1ccccc1 [Example 356] and give its recorded melting point. 151 to 153 °C

Consider the compound O=C(Nc1c(OCc2ccccc2)cccc1C(=O)O)c1ccc(Cl)cc1Cl [Example 381] and give its recorded melting point. 208 to 210 °C

Consider the compound O=C(O)c1cccc(OCc2ccccc2Cl)c1OCc1cccc(F)c1 [Example 358] and give its recorded melting point. 152 to 154 °C

Consider the compound O=C(O)c1cccc(OCc2ccccc2Cl)c1OCc1nc2ccccc2[nH]1 (as salt: hydrochloride) [Example 371, monohydrochloride] and give its recorded melting point. 197 to 201 °C

Consider the compound O=C(Nc1c(OCc2cc(Cl)ccc2Cl)cccc1C(=O)O)c1ccccc1 [Example 384] and give its recorded melting point. 187 to 189 °C

* * *

Attribute: melting point

Known results for compounds:
O=C(O)c1cccc(OCc2ccccc2Cl)c1OCc1cccc(C(F)(F)F)c1 [Example 359] :: 128 to 129 °C
O=C(O)c1cccc(OCc2cccc(Cl)c2)c1OCc1cccc(Cl)c1 [Example 348] :: 126 to 127 °C
O=C(Nc1c(OCc2ccc(Cl)cc2Cl)cccc1C(=O)O)c1ccccc1 [Example 387] :: 182 to 184 °C
Cc1cccc(COc2c(OCc3ccccc3Cl)cccc2C(=O)O)c1 [Example 357] :: 107 to 109 °C
CO/N=C(/C(=O)O)c1cccc(OCc2ccccc2Cl)c1OCc1ccccc1Cl (single isomer, unassigned) [Example 341] :: 97 to 99 °C
O=C(O)c1cccc(OCc2ccccc2Cl)c1OCc1cccc[n+]1[O-] [Example 367] :: 189 to 191 °C
O=C(O)C(F)(F)c1cccc(OCc2ccccc2Cl)c1OCc1ccccc1Cl [Example 27] :: 113 to 115 °C

Moving on to another compound below.
Consider the compound O=C(O)C(Cc1cccc(OCc2ccccc2Cl)c1OCc1ccccc1Cl)C(=O)O [Example 7] and give its recorded melting point. 148 to 150 °C (dec.)

* * *

PARAMETER: melting point

Known results for molecules:
O=C(O)c1cccc(OCc2ccccc2Cl)c1OCc1cccnc1Cl :: 183 to 184 °C
O=C(O)Cc1cccc(OCc2ccccc2Cl)c1OCc1ccccc1Cl :: 105 to 107 °C
O=C(O)c1cccc(OCc2ccccc2Cl)c1OCc1ccc[n+]([O-])c1 :: 177 to 179 °C

Consider the molecule `O=C(O)c1cccc(OCc2ccccc2)c1OCc1ccc(Cl)cc1Cl` and give its recorded melting point. 140 to 142 °C

Consider the molecule `O=C(O)c1cccc(COc2ccccc2Cl)c1COc1ccccc1Cl` and give its recorded melting point. 172 to 174 °C

Consider the molecule `COc1ccccc1COc1c(OCc2ccccc2Cl)cccc1C(=O)O` and give its recorded melting point. 110 to 112 °C

* * *

Attribute: melting point

O=C(O)c1c(Br)ccc(OCc2ccccc2)c1OCc1ccccc1 :: 164 to 166 °C
O=C(O)c1cccc(OCc2cc(C(F)(F)F)cc(C(F)(F)F)c2)c1OCc1cc(C(F)(F)F)cc(C(F)(F)F)c1 :: 156 to 158 °C
O=C(O)c1cccc(OCc2ccccc2Cl)c1OCc1ccc(OCc2ccccc2)cc1 :: 107 to 109 °C

Consider the compound `O=C(O)c1cccc(COc2ccccc2Cl)c1OCc1ccccc1Cl` and give its recorded melting point. 172 to 174 °C

Consider the compound `Cc1cc(C)cc(COc2c(OCc3ccccc3Cl)cccc2C(=O)O)c1` and give its recorded melting point. 122 to 123 °C

Consider the compound `O=C(O)c1cccc(OCc2cc(Cl)cc(Cl)c2)c1OCc1cc(Cl)cc(Cl)c1` and give its recorded melting point. 219 to 220 °C

The reported measurements were obtained from patent US6984645B2.
